IC50 values by entry
System: CT26 cell line
assay_comment: MTT cytotoxic/antiproliferative activity, 72 h
Format: cell-based, murine
experimental_setup: Mus musculus
Just the number please, in µM, no unit attached.

Cc1cc(Nc2ncc(Cl)c(Nc3ccccc3S(=O)(=O)C(C)C)n2)c(OC(C)C)cc1C1CCNCC1 [compound 5, ceritinib] : 1.2
COc1cccc2c1C(=O)c1c(O)c3c(c(O)c1C2=O)C[C@@](O)(C(=O)CO)C[C@@H]3O[C@H]1C[C@H](N)[C@H](O)[C@H](C)O1 [DOX, doxorubicin] : 2.1

Let us move to another entry and its IC50.
C[C@@H](Oc1cc(-c2cnn(C3CCNCC3)c2)cnc1N)c1c(Cl)ccc(F)c1Cl [compound 1, crizotinib] yielded IC50 of 1.8

* * *

pIC50 values by entry
Test system: U87-MG
assay_comment: MTT cytotoxic/antiproliferative activity, 72 h
Format: cell-based, human
experimental_setup: Homo sapiens, U-87 MG, MTT, 72 h
Scale: negative log10 of molar concentration, which is what pIC50 denotes.

C[C@@H](Oc1cc(-c2cnn(C3CCNCC3)c2)cnc1N)c1c(Cl)ccc(F)c1Cl : 5.41

Let us move to another entry and its pIC50.
`Cc1cc(Nc2ncc(Cl)c(Nc3ccccc3S(=O)(=O)C(C)C)n2)c(OC(C)C)cc1C1CCNCC1` yielded pIC50 of 5.96

* * *

Test system: NCI-H2228
assay_comment: MTT cytotoxic/antiproliferative activity, 72 h
Format: cell-based, human
experimental_setup: NCI-H2228, MTT, 72 h
IC50 values by entry
Just the number please, in nM, no unit attached.

Cc1cc(Nc2ncc(Cl)c(Nc3ccccc3S(=O)(=O)C(C)C)n2)c(OC(C)C)cc1C1CCN(C(=O)[O][Pt]2([O]C(=O)CCCc3ccccc3)[O]C(=O)C(=O)[O]2)CC1.N[C@@H]1CCCC[C@H]1N [compound 8, ctc-[Pt(DACH)(ceritinib)(PhB)(Ox)]] : 800

Cc1cc(Nc2ncc(Cl)c(Nc3ccccc3S(=O)(=O)C(C)C)n2)c(OC(C)C)cc1C1CCN(C(=O)[O][Pt]([Cl])([Cl])[O]C(=O)CCCc2ccccc2)CC1.N.N [compound 7, ctc-[Pt(NH3)2(ceritinib)(PhB)Cl2]] yielded IC50 of 70

O=C1[O][Pt]2([NH][C@@H]3CCCC[C@H]3[NH]2)[O]C1=O [OxPt, oxaliplatin, reference compound] yielded IC50 of 3800

CC(Oc1cc(-c2cnn(C3CCN(C(=O)[O][Pt]([Cl])([Cl])[O]C(=O)CCCc4ccccc4)CC3)c2)cnc1N)c1c(Cl)ccc(F)c1Cl.N.N (centres unmarked) [compound 3, ctc-[Pt(NH3)2(crizotinib)(PhB)Cl2]] yielded IC50 of 450

Cc1cc(Nc2ncc(Cl)c(Nc3ccccc3S(=O)(=O)C(C)C)n2)c(OC(C)C)cc1C1CCN(C(=O)[O][Pt]([OH])([Cl])[Cl])CC1.N.N [compound 6, ctc-[Pt(NH3)2(ceritinib)(OH)Cl2]] yielded IC50 of 210

N.N.[Cl][Pt][Cl] [cisPt, cisplatin, reference compound] yielded IC50 of 2400

C[C@@H](Oc1cc(-c2cnn(C3CCN(C(=O)[O][Pt]4([O]C(=O)CCCc5ccccc5)[O]C(=O)C(=O)[O]4)CC3)c2)cnc1N)c1c(Cl)ccc(F)c1Cl.N[C@@H]1CCCC[C@H]1N [compound 4, ctc-[Pt(DACH)(crizotinib)(PhB)(Ox)]] yielded IC50 of 1300

CC(Oc1cc(-c2cnn(C3CCN(C(=O)[O][Pt]([OH])([Cl])[Cl])CC3)c2)cnc1N)c1c(Cl)ccc(F)c1Cl.N.N (centres unmarked) [compound 2, ctc-[Pt(NH3)2(crizotinib)(OH)Cl2]] yielded IC50 of 740

* * *

System: MDA-MB-231
assay_comment: MTT cytotoxic/antiproliferative activity, 72 h
Type: cell-based, human
experimental_setup: MDA-MB-231, MTT, 72 h
pIC50: −log10 of the molar value.
# pIC50 >= 6 gives T, anything below gives F

The following compounds have reported results that may help.
N.N.[Cl][Pt][Cl] [cisPt, cisplatin, reference compound] : F
CC(Oc1cc(-c2cnn(C3CCN(C(=O)[O][Pt]([OH])([Cl])[Cl])CC3)c2)cnc1N)c1c(Cl)ccc(F)c1Cl.N.N (centres unmarked) [compound 2, ctc-[Pt(NH3)2(crizotinib)(OH)Cl2]] : F

Moving on to another compound below.
[in] Say whether Cc1cc(Nc2ncc(Cl)c(Nc3ccccc3S(=O)(=O)C(C)C)n2)c(OC(C)C)cc1C1CCN(C(=O)[O][Pt]([Cl])([Cl])[O]C(=O)CCCc2ccccc2)CC1.N.N [compound 7, ctc-[Pt(NH3)2(ceritinib)(PhB)Cl2]] shows pIC50 of 6 or more.
[out] T

* * *

System: panel of six cancer cell lines
assay_comment: MTT, panel of six cancer cell lines (average, ranges)
Type: cell-based, human
experimental_setup: average over six cancer cell lines; read-out: av cancer (average IC50 in cancer cells)
IC50 values by entry
Just the number please, in µM, no unit attached.

The examples below pair each entry with its known result.
N.N.[Cl][Pt][Cl] [cisPt, cisplatin, reference compound] : 8.8
Cc1cc(Nc2ncc(Cl)c(Nc3ccccc3S(=O)(=O)C(C)C)n2)c(OC(C)C)cc1C1CCN(C(=O)[O][Pt]([Cl])([Cl])[O]C(=O)CCCc2ccccc2)CC1.N.N [compound 7, ctc-[Pt(NH3)2(ceritinib)(PhB)Cl2]] : 0.22
Cc1cc(Nc2ncc(Cl)c(Nc3ccccc3S(=O)(=O)C(C)C)n2)c(OC(C)C)cc1C1CCN(C(=O)[O][Pt]2([O]C(=O)CCCc3ccccc3)[O]C(=O)C(=O)[O]2)CC1.N[C@@H]1CCCC[C@H]1N [compound 8, ctc-[Pt(DACH)(ceritinib)(PhB)(Ox)]] : 1.3
CC(Oc1cc(-c2cnn(C3CCN(C(=O)[O][Pt]([Cl])([Cl])[O]C(=O)CCCc4ccccc4)CC3)c2)cnc1N)c1c(Cl)ccc(F)c1Cl.N.N (stereo not shown) [compound 3, ctc-[Pt(NH3)2(crizotinib)(PhB)Cl2]] : 0.5
C[C@@H](Oc1cc(-c2cnn(C3CCN(C(=O)[O][Pt]4([O]C(=O)CCCc5ccccc5)[O]C(=O)C(=O)[O]4)CC3)c2)cnc1N)c1c(Cl)ccc(F)c1Cl.N[C@@H]1CCCC[C@H]1N [compound 4, ctc-[Pt(DACH)(crizotinib)(PhB)(Ox)]] : 1.5

CC(Oc1cc(-c2cnn(C3CCN(C(=O)[O][Pt]([OH])([Cl])[Cl])CC3)c2)cnc1N)c1c(Cl)ccc(F)c1Cl.N.N (stereo not shown) [compound 2, ctc-[Pt(NH3)2(crizotinib)(OH)Cl2]] yielded IC50 of 1.6

Cc1cc(Nc2ncc(Cl)c(Nc3ccccc3S(=O)(=O)C(C)C)n2)c(OC(C)C)cc1C1CCN(C(=O)[O][Pt]([OH])([Cl])[Cl])CC1.N.N [compound 6, ctc-[Pt(NH3)2(ceritinib)(OH)Cl2]] yielded IC50 of 0.63

* * *

Tested on: CHOK1
assay_comment: MTT cytotoxicity in NER-proficient cells, 72 h
Assay type: cell-based, Chinese hamster
experimental_setup: Cricetulus griseus, CHO-K1
pIC50 values by entry
Scale: negative log10 of molar concentration, which is what pIC50 denotes.

C[C@@H](Oc1cc(-c2cnn(C3CCNCC3)c2)cnc1N)c1c(Cl)ccc(F)c1Cl : 5.89

Kindly note: CHOK1, `Cc1cc(Nc2ncc(Cl)c(Nc3ccccc3S(=O)(=O)C(C)C)n2)c(OC(C)C)cc1C1CCNCC1` , pIC50 value reported: 5.85

* * *

reduction half-life (t 1/2) values by entry
assay_comment: Reduction by L-ascorbic acid in phosphate buffer (RP-HPLC)
Assay type: physicochemical
experimental_setup: 10 equiv L-ascorbic acid, 10% DMSO in 100 mM phosphate buffer pH 7.4, 37 °C
Just the number please, in h, no unit attached.

CC(Oc1cc(-c2cnn(C3CCN(C(=O)[O][Pt]([Cl])([Cl])[O]C(=O)CCCc4ccccc4)CC3)c2)cnc1N)c1c(Cl)ccc(F)c1Cl.N.N (centres unmarked) [compound 3, ctc-[Pt(NH3)2(crizotinib)(PhB)Cl2]] yielded reduction half-life (t 1/2) of 7.7

CC(Oc1cc(-c2cnn(C3CCN(C(=O)[O][Pt]([OH])([Cl])[Cl])CC3)c2)cnc1N)c1c(Cl)ccc(F)c1Cl.N.N (centres unmarked) [compound 2, ctc-[Pt(NH3)2(crizotinib)(OH)Cl2]] yielded reduction half-life (t 1/2) of 2.7

Cc1cc(Nc2ncc(Cl)c(Nc3ccccc3S(=O)(=O)C(C)C)n2)c(OC(C)C)cc1C1CCN(C(=O)[O][Pt]2([O]C(=O)CCCc3ccccc3)[O]C(=O)C(=O)[O]2)CC1.N[C@@H]1CCCC[C@H]1N [compound 8, ctc-[Pt(DACH)(ceritinib)(PhB)(Ox)]] yielded reduction half-life (t 1/2) of 12.5

Cc1cc(Nc2ncc(Cl)c(Nc3ccccc3S(=O)(=O)C(C)C)n2)c(OC(C)C)cc1C1CCN(C(=O)[O][Pt]([OH])([Cl])[Cl])CC1.N.N [compound 6, ctc-[Pt(NH3)2(ceritinib)(OH)Cl2]] yielded reduction half-life (t 1/2) of 2.2

C[C@@H](Oc1cc(-c2cnn(C3CCN(C(=O)[O][Pt]4([O]C(=O)CCCc5ccccc5)[O]C(=O)C(=O)[O]4)CC3)c2)cnc1N)c1c(Cl)ccc(F)c1Cl.N[C@@H]1CCCC[C@H]1N [compound 4, ctc-[Pt(DACH)(crizotinib)(PhB)(Ox)]] yielded reduction half-life (t 1/2) of 11.5
